Experiment: Phase 1 SAD/MAD study: plasma pharmacokinetics of Compound 1a (LC-MS-MS, noncompartmental analysis)
Type: in vivo, human
Settings: human, plasma, po, 1000 mg, SAD 1,000 mg oral, fasted, average
readout.label: AUC(0-inf) (µg·h/mL)

# chemical.smiles, reported.result
rows = [
    ("O.O=C([O-])c1nn[nH]c1Oc1ccc(-c2ccc(C3CC(F)(F)C3)cc2)cc1.[Na+]", 214),
]

---

Experiment: Phase 1 SAD/MAD study: plasma pharmacokinetics of Compound 1a (LC-MS-MS, noncompartmental analysis)
Assay type: in vivo, human
Conditions: human, plasma, oral, 500 mg, MAD 500 mg qd for 7 days, average, plasma; read-out: Day 7 AUC0-24

# compound, AUC(0-t), µg·h/mL
data = [
    ("O.O=C([O-])c1nn[nH]c1Oc1ccc(-c2ccc(C3CC(F)(F)C3)cc2)cc1.[Na+] [Compound 1a]", 133),
]

---

Experiment: Phase 1 SAD/MAD study: plasma pharmacokinetics of Compound 1a (LC-MS-MS, noncompartmental analysis)
Assay type: in vivo, human
Conditions: human, plasma, po, 1000 mg, SAD 1,000 mg oral, fed, average, plasma; read-out: Tmax
readout.label: Tmax (h)

# chemical.smiles, reported.result
rows = [
    ("O.O=C([O-])c1nn[nH]c1Oc1ccc(-c2ccc(C3CC(F)(F)C3)cc2)cc1.[Na+]", 5.86),
]

---

Experiment: Phase 1 SAD/MAD study: plasma pharmacokinetics of Compound 1a (LC-MS-MS, noncompartmental analysis)
Type: in vivo, human
Conditions: human, plasma, oral, 1000 mg, single dose 1000 mg, healthy volunteers, geometric mean

# chemical.smiles, unit.of.measure, Cmax
rows = [
    ("O.O=C([O-])c1nn[nH]c1Oc1ccc(-c2ccc(C3CC(F)(F)C3)cc2)cc1.[Na+]", "ng/mL", 17200),
]

---

Assay: Phase 1 SAD/MAD study: plasma pharmacokinetics of Compound 1a (LC-MS-MS, noncompartmental analysis)
Assay type: in vivo, human
Details: human, plasma, po, 2000 mg, SAD 2,000 mg oral, fasted, average, plasma; read-out: AUC0-24
readout.label: AUC(0-t)

# chemical.smiles, reported.result
rows = [
    ("O.O=C([O-])c1nn[nH]c1Oc1ccc(-c2ccc(C3CC(F)(F)C3)cc2)cc1.[Na+]", "253 µg·h/mL"),
]

---

Assay: Phase 1 SAD/MAD study: plasma pharmacokinetics of Compound 1a (LC-MS-MS, noncompartmental analysis)
Assay type: in vivo, human
Conditions: human, plasma, oral, 3000 mg, single dose 3000 mg, healthy volunteers, geometric mean

# compound, Cmax (ng/mL)
records = [
    ("O.O=C([O-])c1nn[nH]c1Oc1ccc(-c2ccc(C3CC(F)(F)C3)cc2)cc1.[Na+] [Compound 1a]", 22500),
]

---

Test: Phase 1 SAD/MAD study: plasma pharmacokinetics of Compound 1a (LC-MS-MS, noncompartmental analysis)
Format: in vivo, human
Conditions: human, plasma, po, 3000 mg, SAD 3,000 mg oral, fasted, average
readout.label: AUC(0-inf)

# compound, readout.label, reported.result
rows = [
    ("O.O=C([O-])c1nn[nH]c1Oc1ccc(-c2ccc(C3CC(F)(F)C3)cc2)cc1.[Na+] [Compound 1a]", "AUC(0-inf)", "226 µg·h/mL"),
]
